assay: Terminal half life in C57BL/6 mouse at 2 mg, ip; type: ADME, organism-based; details: in vivo
readout type: half-life (h)
Give bare numbers, in h.

For the compound COc1cc(C2C(NC(=O)c3ccc(NC(=O)OC(C)(C)C)cc3)(C(=O)O)C(c3ccc(OC(=O)c4cccs4)c(OC)c3)C2(NC(=O)c2ccc(NC(=O)OC(C)(C)C)cc2)C(=O)O)ccc1OC(=O)c1cccs1 (stereo unspecified) , what half-life is on record?
7.5

###

target: Glucagon-like peptide 1 receptor (Rattus norvegicus, UniProt P32301); experiment: Agonist activity at rat GLP1 receptor expressed in HEK293 cells assessed as cAMP release
Sequence (P32301 whole entry): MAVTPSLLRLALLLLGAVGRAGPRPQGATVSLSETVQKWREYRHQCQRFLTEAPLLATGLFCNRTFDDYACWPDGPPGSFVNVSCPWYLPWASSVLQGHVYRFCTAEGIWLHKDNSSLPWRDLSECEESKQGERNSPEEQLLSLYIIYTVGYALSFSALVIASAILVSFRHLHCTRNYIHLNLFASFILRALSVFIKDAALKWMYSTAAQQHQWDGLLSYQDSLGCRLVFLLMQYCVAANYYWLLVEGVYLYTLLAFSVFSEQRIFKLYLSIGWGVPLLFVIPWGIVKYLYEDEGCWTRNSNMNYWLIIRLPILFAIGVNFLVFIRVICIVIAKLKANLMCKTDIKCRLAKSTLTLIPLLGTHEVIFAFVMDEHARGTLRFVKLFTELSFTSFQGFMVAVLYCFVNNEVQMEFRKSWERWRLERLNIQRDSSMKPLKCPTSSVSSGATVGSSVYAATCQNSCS
readout type: pEC50
Numbers only, as −log10 of the molar value.

COc1cc(C2C(NC(=O)c3ccc(NC(=O)C4CCCC4)cc3)(C(=O)O)C(c3ccc(OC(=O)c4cccs4)c(OC)c3)C2(NC(=O)c2ccc(NC(=O)C3CCCC3)cc2)C(=O)O)ccc1OC(=O)c1cccs1 (configuration not stated); 5.97

From here, focus on the item given below.
For the compound COc1cc(C2C(NC(=O)c3ccc(NC(=O)OC(C)(C)C)cc3)(C(=O)O)C(c3ccc(OC(=O)c4cccs4)c(OC)c3)C2(NC(=O)c2ccc(NC(=O)OC(C)(C)C)cc2)C(=O)O)ccc1OC(=O)c1cccs1 (configuration not stated) , what pEC50 is on record?
5.56
